System: RXF 393
Assay: NCI tumour cell line growth inhibition, 48 h
Activity calls are given as the source filed them. Rule as the data show it: active = GI50 up to about 1.1 µM and inactive = higher.
Assign GI50 to each entry below.

Worked cases, GI50 given:
| compound | reported endpoint | test value |
| --- | --- | --- |
| CCN(CC)CC(=O)Nc1ccc2c(c1)C(=O)c1ccc(NC(=O)CN(CC)CC)cc1C2=O | GI50 | 3.22 µM (inactive) |
| COc1cc(CNc2nc3ccccc3nc2C(=O)O)cc(OC)c1OC | GI50 | 94 µM (inactive) |
| CCc1cccc(C(C)C)c1NC(=O)C(=O)C1C(=O)NC(=O)NC1=O | GI50 | > 100 µM (inactive) |
| O=c1[nH]nc(-c2ccc([N+](=O)[O-])cc2)[nH]1 | GI50 | > 100 µM (inactive) |
| CN1NC(c2ccccc2)=C(C#N)C(=O)CC1c1ccc(Br)cc1 (stereo not given) | GI50 | 36.6 µM (inactive) |

Go through the list and state GI50 for each entry.
1. N#CC(C(=O)CCCC(=O)Nc1ccc(Cl)cc1Cl)c1ccccc1 (stereo not given)
2. O=C(Nc1ccccc1[N+](=O)[O-])/C(=N/Nc1cccc(Cl)c1)c1c(O)c2ccccc2oc1=O
3. CC1=NNC(=O)C1C1(C(=O)O)CC(c2c[nH]c3ccccc23)=NC(=S)N1 (stereo not given)
4. CCCN1CN(c2ccccc2)C2(CCN(CCCC(=O)c3ccc(F)cc3)CC2)C1=O
5. O=P(O)(O)C1CCCC(P(=O)(O)O)N1 (stereo not given)

> 100 µM (inactive)
> 100 µM (inactive)
28.1 µM (inactive)
16.8 µM (inactive)
> 100 µM (inactive)
